- assay.method.text: 1-Octanol/phosphate buffered-saline distribution coefficient, logD of compound at pH 7.4 measured after 4 hrs by LC-MS analysis
- Assay type: physicochemical
Positions of bridges follow the written chain, without caps; N, C: chain ends. Non-standard residues stand in square brackets, D forms with d. Residues, ends and D or L forms follow the SMILES beside them. NMeNle = CCCC[C@H](NC)C(=O)O; Nle = CCCC[C@H](N)C(=O)O
property.name: logD at 4 h

molecule: CCCC[C@@H]1NC(=O)[C@H](CCCC)N(C)C(=O)[C@H](CCCC)NC(=O)[C@H](Cc2ccccc2)N(C)C(=O)[C@H]([C@@H](C)O)NC(=O)[C@H](CCCC)N(C)C(=O)[C@@H](Cc2ccccc2)NC(=O)CSC[C@@H](C(=O)NC)NC1=O
property.name: logD at 4 h
value.reported: 5.2
--
molecule: CCCC[C@@H]1NC(=O)[C@H](Cc2ccccc2)N(C)C(=O)CSC[C@H](C(=O)NC)N(C)C(=O)[C@H](CCCC)NC(=O)[C@H](CCCC)N(C)C(=O)C2CCCN2C1=O (some centres undefined)
property.name: logD at 4 h
value.reported: 3.6
--
molecule: CCCC[C@@H]1NC(=O)[C@H](CCCC)N(C)C(=O)[C@@H]2CCCN2C(=O)[C@H](CCCC)N(C)C(=O)[C@H](Cc2ccccc2)NC(=O)CSC[C@@H](C(=O)NC)NC(=O)[C@H](CCCC)N(C)C1=O ({CH2CO}-F[NMeNle]P[NMeNle][Nle][NMeNle]C-NHMe; thioether N-7)
property.name: logD at 4 h
value.reported: 4.8
--
molecule: CCCC[C@@H]1NC(=O)[C@H](Cc2ccccc2)N(C)C(=O)CSC[C@H](C(=O)NC)N(C)C(=O)[C@H](CCCC)NC(=O)[C@H](CCCC)N(C)C(=O)[C@H](CCCC)NC1=O
property.name: logD at 4 h
value.reported: 4.1

---

- assay.method.text: Aqueous solubility of the compound at pH 6.8
- Type: physicochemical
- test.settings: buffer
Positions of bridges follow the written chain, without caps; N, C: chain ends. Non-standard residues stand in square brackets, D forms with d. Residues, ends and D or L forms follow the SMILES beside them. NMeNle = CCCC[C@H](NC)C(=O)O; Nle = CCCC[C@H](N)C(=O)O
property.name: solubility (µM)

compound: CCCC[C@@H]1NC(=O)[C@H](CCCC)NC(=O)[C@H](CCCC)N(C)C(=O)[C@@H]2CCCN2C(=O)[C@H](CCCC)N(C)C(=O)[C@H](Cc2ccccc2)NC(=O)CSC[C@@H](C(=O)NC)NC1=O ({CH2CO}-F[NMeNle]P[NMeNle][Nle][Nle]C-NHMe; thioether N-7)
units.label: µM
solubility: 9
--
compound: CCCC[C@@H]1NC(=O)[C@H](Cc2ccccc2)N(C)C(=O)CSC[C@H](C(=O)NC)N(C)C(=O)[C@H](CCCC)NC(=O)[C@H](CCCC)N(C)C(=O)C2CCCN2C1=O (some centres undefined)
units.label: µM
solubility: 216
--
compound: CCCC[C@@H]1NC(=O)[C@H](Cc2ccccc2)NC(=O)CSC[C@H](C(=O)NC)NC(=O)[C@H](CCCC)N(C)C(=O)[C@H](CCCC)NC(=O)[C@H](CCCC)N(C)C1=O
units.label: µM
solubility: 5
--
compound: CCCC[C@@H]1NC(=O)[C@H](Cc2ccccc2)N(C)C(=O)CSC[C@H](C(=O)NC)N(C)C(=O)[C@H](CCCC)NC(=O)[C@H](CCCC)N(C)C(=O)[C@H](CCCC)NC1=O
units.label: µM
solubility: 12
--
compound: CCCC[C@@H]1NC(=O)[C@H](CCCC)NC(=O)[C@H](CCCC)NC(=O)[C@@H](Cc2ccccc2)NC(=O)CSC[C@H](C(=O)NC)NC(=O)[C@H](CCCC)NC1=O
units.label: µM
solubility: 5

P. CCCC[C@@H]1NC(=O)[C@H](CCCC)NC(=O)[C@H]2CCCN2C(=O)[C@H](CCCC)NC(=O)[C@H](Cc2ccccc2)NC(=O)CSC[C@H](C(=O)NC)NC(=O)[C@H](CCCC)NC1=O
Q. CCCC[C@@H]1NC(=O)C2CCCN2C(=O)[C@H](CCCC)NC(=O)[C@H](Cc2ccccc2)NC(=O)CSC[C@H](C(=O)NC)NC(=O)[C@H](CCCC)NC1=O (some centres undefined)
R. CCCC[C@@H]1NC(=O)[C@H](CCCC)N(C)C(=O)[C@H](CCCC)NC(=O)[C@H](CCCC)N(C)C(=O)[C@@H](Cc2ccccc2)NC(=O)CSC[C@H](C(=O)NC)NC1=O
Query: Please list these compounds in decreasing order of solubility. Order the labels as requested and give them as your answer.
Result: Q, R, P
(Q: 200 µM, R: 18 µM, P: 9 µM)

---

- assay.method.text: Cmax in Sprague-Dawley rat systemic circulation at 5 mg/kg, po or 0.5 mg/kg, iv measured up to 24 hrs by HPLC-MS/MS analysis
- Type: ADME, organism-based
- Set-up: dose 5 mg/kg, time <=24
property.name: Cmax (nM)

// known answers, use as guide
compound: CCCC[C@@H]1NC(=O)[C@H](Cc2ccccc2)N(C)C(=O)CSC[C@H](C(=O)NC)N(C)C(=O)[C@H](CCCC)NC(=O)[C@H](CCCC)N(C)C(=O)C2CCCN2C1=O (stereo not given in full)
Cmax / nM: 152

compound: CCCC[C@@H]1NC(=O)[C@H](CCCC)N(C)C(=O)[C@H](CCCC)NC(=O)[C@H](Cc2ccccc2)N(C)C(=O)[C@H]([C@@H](C)O)NC(=O)[C@H](CCCC)N(C)C(=O)[C@@H](Cc2ccccc2)NC(=O)CSC[C@@H](C(=O)NC)NC1=O
Cmax / nM: 161

P. CCCC[C@@H]1NC(=O)[C@H](CCCC)N(C)C(=O)[C@H](CCCC)NC(=O)[C@H](CCCC)N(C)C(=O)[C@H](CCCC)NC(=O)[C@H](CCCC)N(C)C(=O)[C@@H](Cc2ccccc2)NC(=O)CSC[C@@H](C(=O)NC)NC1=O
Q. CCCC[C@@H]1NC(=O)C2CCCN2C(=O)[C@H](CCCC)NC(=O)[C@H](Cc2ccccc2)NC(=O)CSC[C@H](C(=O)NC)NC(=O)[C@H](CCCC)NC1=O (stereo not given in full)
Query: Input pair: P , Q . Output: entry with lower Cmax. API: response body contains the label of the selected item.
Result: Q

---

Catalogue of microsomal CLint values
- assay.method.text: Clearance in human liver microsomes measured up to 30 mins in presence of NADPH by HPLC-MS/MS analysis
- Assay type: ADME, Microsome
- test.settings: read-out: CLH

compound: CCCC[C@@H]1NC(=O)[C@H](CCCC)NC(=O)[C@H](CCCC)NC(=O)[C@@H](Cc2ccccc2)NC(=O)CSC[C@H](C(=O)NC)NC(=O)[C@H](CCCC)NC1=O
microsomal CLint: ≥ 350 µL/min/mg

compound: CCCC[C@@H]1NC(=O)C2CCCN2C(=O)[C@H](CCCC)NC(=O)[C@H](Cc2ccccc2)NC(=O)CSC[C@H](C(=O)NC)NC(=O)[C@H](CCCC)NC1=O (stereo not given in full)
microsomal CLint: ≥ 350 µL/min/mg

compound: CCCC[C@@H]1NC(=O)[C@H](CCCC)N(C)C(=O)[C@H](CCCC)NC(=O)[C@H](Cc2ccccc2)N(C)C(=O)[C@H]([C@@H](C)O)NC(=O)[C@H](CCCC)N(C)C(=O)[C@@H](Cc2ccccc2)NC(=O)CSC[C@@H](C(=O)NC)NC1=O
microsomal CLint: ≥ 120 µL/min/mg

compound: CCCC[C@@H]1NC(=O)[C@H](Cc2ccccc2)NC(=O)CSC[C@H](C(=O)NC)NC(=O)[C@H](CCCC)NC(=O)[C@H](CCCC)NC(=O)[C@H](CCCC)NC1=O
microsomal CLint: ≥ 350 µL/min/mg

Next:
CCCC[C@@H]1NC(=O)[C@H](Cc2ccccc2)N(C)C(=O)CSC[C@H](C(=O)NC)N(C)C(=O)[C@H](CCCC)NC(=O)[C@H](CCCC)N(C)C(=O)[C@H](CCCC)NC1=O has a reported microsomal CLint of ≥ 350 µL/min/mg

---

Catalogue of microsomal CLint values
- assay.method.text: Clearance in human liver microsomes measured up to 30 mins in presence of NADPH by HPLC-MS/MS analysis
- Format: ADME, Microsome
- test.settings: read-out: CLH
Positions of bridges follow the written chain, without caps; N, C: chain ends. Non-standard residues stand in square brackets, D forms with d. Residues, ends and D or L forms follow the SMILES beside them. NMeNle = CCCC[C@H](NC)C(=O)O; Nle = CCCC[C@H](N)C(=O)O

// known answers, use as guide
compound: CCCC[C@@H]1NC(=O)[C@H](CCCC)N(C)C(=O)[C@H](CCCC)NC(=O)[C@H](CCCC)N(C)C(=O)[C@H](CCCC)NC(=O)[C@H](CCCC)N(C)C(=O)[C@@H](Cc2ccccc2)NC(=O)CSC[C@@H](C(=O)NC)NC1=O
microsomal CLint: ≥ 120 µL/min/mg
--
compound: CCCC[C@@H]1NC(=O)[C@H](CCCC)NC(=O)[C@H]2CCCN2C(=O)[C@H](CCCC)NC(=O)[C@H](Cc2ccccc2)NC(=O)CSC[C@H](C(=O)NC)NC(=O)[C@H](CCCC)NC1=O
microsomal CLint: ≥ 480 µL/min/mg
--
compound: CCCC[C@@H]1NC(=O)[C@H](CCCC)NC(=O)[C@H](CCCC)N(C)C(=O)[C@@H]2CCCN2C(=O)[C@H](CCCC)N(C)C(=O)[C@H](Cc2ccccc2)NC(=O)CSC[C@@H](C(=O)NC)NC1=O ({CH2CO}-F[NMeNle]P[NMeNle][Nle][Nle]C-NHMe; thioether N-7)
microsomal CLint: ≥ 480 µL/min/mg

CCCC[C@@H]1NC(=O)[C@H](Cc2ccccc2)N(C)C(=O)CSC[C@H](C(=O)NC)N(C)C(=O)[C@H](CCCC)NC(=O)[C@H](CCCC)N(C)C(=O)C2CCCN2C1=O (stereo not given in full) has a reported microsomal CLint of ≥ 350 µL/min/mg

CCCC[C@@H]1NC(=O)[C@H](CCCC)N(C)C(=O)[C@@H]2CCCN2C(=O)[C@H](CCCC)N(C)C(=O)[C@H](Cc2ccccc2)NC(=O)CSC[C@@H](C(=O)NC)NC(=O)[C@H](CCCC)N(C)C1=O ({CH2CO}-F[NMeNle]P[NMeNle][Nle][NMeNle]C-NHMe; thioether N-7) has a reported microsomal CLint of ≥ 480 µL/min/mg
